- Experimental details: Pharmacokinetic test in rats, oral gavage
- Format: in vivo, Sprague-Dawley rats
- Particulars: male, Sprague-Dawley, rat, 40 mg/kg; rats, PO, 40 mpk, single dose, plasma; read-out: Cmax

{"Query smiles": "CC(C)(O)CCn1cc2cc(NC(=O)c3coc(-c4ccnc(C(F)(F)F)c4)n3)c(C(C)(C)O)cc2n1", "Cmax [ng/mL]": 934}
